Give measured Ht for each item. Keep answers brief.
- Species: Rattus norvegicus
- protocol_description: Open TG-GATES - Regimen: Daily Repeat
- Format: toxicity, organism-based, Sprague-Dawley
- Design: regimen Daily Repeat, gender Male, age 6 weeks
- particulars: in vivo, po, 0 mg/kg, 72 h, tissue Blood, route gavage, dose level Control, time 3 day
Please state the figure in %; there is no need to write the unit.

The molecule `CCOC(=O)[C@H](CCc1ccccc1)N[C@@H](C)C(=O)N1CCC[C@H]1C(=O)O` showed Ht equal to 40.1

The molecule Cc1cccc(Nc2ccccc2C(=O)O)c1C [MEFENAMIC ACID] showed Ht equal to 38.3

The molecule CC(CN1c2ccccc2Sc2ccccc21)N(C)C (centres undefined) [PROMETHAZINE] showed Ht equal to 40.1

The molecule CN1C(C(=O)Nc2ccccn2)=C(O)c2sc(Cl)cc2S1(=O)=O [LORNOXICAM] showed Ht equal to 38.6

The molecule CN(C)[C@@H]1C(O)=C(C(N)=O)C(=O)[C@@]2(O)C(O)=C3C(=O)c4c(O)cccc4[C@@](C)(O)[C@H]3C[C@@H]12 [TETRACYCLINE] showed Ht equal to 41.2

The molecule C#C[C@]1(O)CC[C@H]2[C@@H]3CCC4=Cc5oncc5C[C@]4(C)[C@H]3CC[C@@]21C [DANAZOL] showed Ht equal to 40.8

The molecule Clc1c(Cl)c(Cl)c(Cl)c(Cl)c1Cl [PERCHLOROBENZENE] showed Ht equal to 40.9

The molecule CC(=O)Nc1nnc(S(N)(=O)=O)s1 [ACETAZOLAMIDE] showed Ht equal to 39.4

The molecule C1CCC(C(CC2CCCCN2)C2CCCCC2)CC1 (centres undefined) [PERHEXILINE] showed Ht equal to 39.2

====

- Species on record: Rattus norvegicus
- protocol_description: Open TG-GATES - Regimen: Daily Repeat
- Type: toxicity, organism-based, Sprague-Dawley
- Design: regimen Daily Repeat, gender Male, age 6 weeks
- particulars: in vivo, po, 0 mg/kg, […], tissue Plasma, route gavage, dose level Control, time 28 day
property_name: PL
Output should be the measured figure followed by the unit it is expressed in.

The molecule C#C[C@]1(O)CC[C@H]2[C@@H]3CCC4=Cc5oncc5C[C@]4(C)[C@H]3CC[C@@]21C [DANAZOL] showed PL equal to 144.2 mg/dL

The molecule CN1C(C(=O)Nc2ccccn2)=C(O)c2sc(Cl)cc2S1(=O)=O [LORNOXICAM] showed PL equal to 142.8 mg/dL

The molecule C1CCC(C(CC2CCCCN2)C2CCCCC2)CC1 (centres undefined) [PERHEXILINE] showed PL equal to 129.6 mg/dL

The molecule CN(C)[C@@H]1C(O)=C(C(N)=O)C(=O)[C@@]2(O)C(O)=C3C(=O)c4c(O)cccc4[C@@](C)(O)[C@H]3C[C@@H]12 [TETRACYCLINE] showed PL equal to 164 mg/dL

The molecule Cc1cccc(Nc2ccccc2C(=O)O)c1C [MEFENAMIC ACID] showed PL equal to 151.8 mg/dL

The molecule O=C(O)Cc1ccccc1Nc1c(Cl)cccc1Cl [DICLOFENAC] showed PL equal to 151.4 mg/dL

The molecule CC(CN1c2ccccc2Sc2ccccc21)N(C)C (centres undefined) [PROMETHAZINE] showed PL equal to 149 mg/dL

The molecule Clc1c(Cl)c(Cl)c(Cl)c(Cl)c1Cl [PERCHLOROBENZENE] showed PL equal to 160.4 mg/dL

The molecule `CCOC(=O)[C@H](CCc1ccccc1)N[C@@H](C)C(=O)N1CCC[C@H]1C(=O)O` showed PL equal to 145 mg/dL

====

Give measured gamma-GTP for each item. Keep answers brief.
- Species: Rattus norvegicus
- protocol_description: Open TG-GATES - Regimen: Single
- Assay type: toxicity, organism-based, Sprague-Dawley
- Parameters: regimen Single, gender Male, age 6 weeks
- particulars: in vivo, po, 0 mg/kg, 9 h, tissue Plasma, route gavage, dose level Control
Please state the figure in IU/L; there is no need to write the unit.

The compound `CN1C(C(=O)Nc2ccccn2)=C(O)c2sc(Cl)cc2S1(=O)=O` showed gamma-GTP equal to 1.2

The compound `C#C[C@]1(O)CC[C@H]2[C@@H]3CCC4=Cc5oncc5C[C@]4(C)[C@H]3CC[C@@]21C` showed gamma-GTP equal to 1.2

The compound CC(CN1c2ccccc2Sc2ccccc21)N(C)C (configuration not stated) showed gamma-GTP equal to 1.2

The compound C1CCC(C(CC2CCCCN2)C2CCCCC2)CC1 (configuration not stated) showed gamma-GTP equal to 0.8

The compound `CCOC(=O)[C@H](CCc1ccccc1)N[C@@H](C)C(=O)N1CCC[C@H]1C(=O)O` showed gamma-GTP equal to 1.6

The compound CC(=O)Nc1nnc(S(N)(=O)=O)s1 [ACETAZOLAMIDE] showed gamma-GTP equal to 1.2

The compound `Clc1c(Cl)c(Cl)c(Cl)c(Cl)c1Cl` showed gamma-GTP equal to 1

====

Give measured WBC for each item. Keep answers brief.
- Species on record: Rattus norvegicus
- protocol_description: Open TG-GATES - Regimen: Daily Repeat
- Assay type: toxicity, organism-based, Sprague-Dawley
- Parameters: regimen Daily Repeat, gender Male, age 6 weeks
- particulars: in vivo, po, 0 mg/kg, […], tissue Blood, route gavage, dose level Control, time 7 day
Output should be the measured figure followed by the unit it is expressed in.

The compound CC(CN1c2ccccc2Sc2ccccc21)N(C)C (centres undefined) showed WBC equal to 131.7 x10_2/uL

The compound `Clc1c(Cl)c(Cl)c(Cl)c(Cl)c1Cl` showed WBC equal to 105.4 x10_2/uL

The compound `CN1C(C(=O)Nc2ccccn2)=C(O)c2sc(Cl)cc2S1(=O)=O` showed WBC equal to 106.9 x10_2/uL

The compound `CN(C)[C@@H]1C(O)=C(C(N)=O)C(=O)[C@@]2(O)C(O)=C3C(=O)c4c(O)cccc4[C@@](C)(O)[C@H]3C[C@@H]12` showed WBC equal to 142 x10_2/uL

====

- Organism: Rattus norvegicus
- protocol_description: Open TG-GATES - Regimen: Daily Repeat
- Assay type: toxicity, organism-based, Sprague-Dawley
- Design: regimen Daily Repeat, gender Male, age 6 weeks
- particulars: in vivo, po, 0 mg/kg, […], tissue Plasma, route gavage, dose level Control, time 14 day
Give measured RALB for each item. Keep answers brief.

The compound C1CCC(C(CC2CCCCN2)C2CCCCC2)CC1 (stereo not given) showed RALB equal to 3.2 g/dL

The compound `O=C(O)Cc1ccccc1Nc1c(Cl)cccc1Cl` showed RALB equal to 3.4 g/dL

The compound `Clc1c(Cl)c(Cl)c(Cl)c(Cl)c1Cl` showed RALB equal to 4 g/dL

The compound `CCOC(=O)[C@H](CCc1ccccc1)N[C@@H](C)C(=O)N1CCC[C@H]1C(=O)O` showed RALB equal to 3.9 g/dL

The compound `C#C[C@]1(O)CC[C@H]2[C@@H]3CCC4=Cc5oncc5C[C@]4(C)[C@H]3CC[C@@]21C` showed RALB equal to 3.1 g/dL

====

Give measured Na for each item. Keep answers brief.
- Species on record: Rattus norvegicus
- protocol_description: Open TG-GATES - Regimen: Daily Repeat
- Type: toxicity, organism-based, Sprague-Dawley
- Parameters: regimen Daily Repeat, gender Male, age 6 weeks
- particulars: in vivo, po, 0 mg/kg, […], tissue Plasma, route gavage, dose level Control, time 7 day
Please state the figure in meq/L; there is no need to write the unit.

The molecule CC(=O)Nc1nnc(S(N)(=O)=O)s1 [ACETAZOLAMIDE] showed Na equal to 142.2

The molecule CN(C)[C@@H]1C(O)=C(C(N)=O)C(=O)[C@@]2(O)C(O)=C3C(=O)c4c(O)cccc4[C@@](C)(O)[C@H]3C[C@@H]12 [TETRACYCLINE] showed Na equal to 139

The molecule Cc1cccc(Nc2ccccc2C(=O)O)c1C [MEFENAMIC ACID] showed Na equal to 140.4

The molecule C#C[C@]1(O)CC[C@H]2[C@@H]3CCC4=Cc5oncc5C[C@]4(C)[C@H]3CC[C@@]21C [DANAZOL] showed Na equal to 141.8

The molecule Clc1c(Cl)c(Cl)c(Cl)c(Cl)c1Cl [PERCHLOROBENZENE] showed Na equal to 137.4

The molecule `CCOC(=O)[C@H](CCc1ccccc1)N[C@@H](C)C(=O)N1CCC[C@H]1C(=O)O` showed Na equal to 140.2

The molecule CN1C(C(=O)Nc2ccccn2)=C(O)c2sc(Cl)cc2S1(=O)=O [LORNOXICAM] showed Na equal to 140.4

The molecule C1CCC(C(CC2CCCCN2)C2CCCCC2)CC1 (centres undefined) [PERHEXILINE] showed Na equal to 143.6

The molecule CC(CN1c2ccccc2Sc2ccccc21)N(C)C (centres undefined) [PROMETHAZINE] showed Na equal to 141.2
